Listed here are compounds together with their documented pKi.
target: human growth hormone secretagogue receptor (hGHS-R1a) (Homo sapiens); construct: purchased PerkinElmer BioSignal #RBHGHSM; host or cells: HEK-293, stably transfected; test: Competitive radioligand binding assay (ghrelin receptor), [125I]-ghrelin displacement on GHS-R/HEK 293 membranes; settings: Binding activity at the human ghrelin receptor, [125I]-ghrelin displacement; read-out: Ki
Sequence (Q92847 whole entry): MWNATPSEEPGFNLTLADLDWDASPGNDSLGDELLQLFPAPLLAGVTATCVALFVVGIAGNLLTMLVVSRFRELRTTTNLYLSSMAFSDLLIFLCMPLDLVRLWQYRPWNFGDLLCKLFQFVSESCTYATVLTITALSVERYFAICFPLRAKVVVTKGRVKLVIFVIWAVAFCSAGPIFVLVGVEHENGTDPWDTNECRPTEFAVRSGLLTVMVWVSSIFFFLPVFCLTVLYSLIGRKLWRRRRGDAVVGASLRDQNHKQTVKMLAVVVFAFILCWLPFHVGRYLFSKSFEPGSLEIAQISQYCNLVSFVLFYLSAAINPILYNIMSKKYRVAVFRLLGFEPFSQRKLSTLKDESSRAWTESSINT
pKi: −log10 of the molar value.

Examples with their reported pKi follow.
Given `CC[C@@H]1NCCOc2ccccc2CCCNC(=O)[C@@H](Cc2ccccc2)NC(=O)[C@@H](C)N(C)C1=O` , state its recorded pKi.
7.00 to 8.00

So what does the record say about pKi for `CCC[C@@H]1NCCOc2ccccc2CCCNC(=O)[C@@H](CCCN)NC(=O)CN(C)C1=O` ?
< 5.00

# get_value(readout='pKi', item= `CCC[C@H]1NCCOc2ccccc2CCCNC(=O)[C@@H](Cc2ccccc2)NC(=O)CN(C)C1=O` )
5.00 to 6.00

Which pKi value is on record for `CCC[C@@H]1NCCOc2ccccc2CCCNC(=O)[C@@H](Cc2ccccc2)NC(=O)CN(CC)C1=O` ?
6.00 to 7.00

Need pKi of `CCC[C@@H]1NCCOc2ccccc2CCCNC(=O)[C@@H](Cc2ccccc2)NC(=O)[C@H](CC(C)C)NC1=O` , thanks.
5.00 to 6.00

New cases:
Report pKi for `CCC[C@@H]1NC(=O)C2(CCCC2)NC(=O)[C@H](CC(C)C)NCCOc2ccccc2/C=C/CNC1=O` please.
< 5.00

Given the entry CN1CC(=O)NC(Cc2ccccc2)C(=O)NCCCc2ccccc2OCCNCC1=O (centres unmarked) , report its measured pKi.
< 5.00

Any idea what pKi was measured for `CC(C)C[C@H]1NCCOc2ccccc2CCCNC(=O)[C@@H](Cc2ccccc2)NC(=O)C2(CCCC2)NC1=O` ?
< 5.00

---

molecular target: human growth hormone secretagogue receptor (hGHS-R1a) (Homo sapiens); construct: purchased PerkinElmer BioSignal #RBHGHSM; host or cells: HEK-293, stably transfected; assay: Competitive radioligand binding assay (ghrelin receptor), [125I]-ghrelin displacement on GHS-R/HEK 293 membranes; details: Table 4; TFA salts unless otherwise noted; read-out: Ki
pKi: −log10 of the molar value.
Experimental endpoint: pKi

Which pKi value belongs to `C[C@@H]1C(=O)N[C@H](Cc2ccc(F)cc2)C(=O)NCCCc2ccc(F)cc2OCCN[C@@H](C2CC2)C(=O)N1C` ?
8.00 to 10.00

Requested read-out: pKi. Entry: `C[C@@H]1C(=O)N[C@H](Cc2ccccc2)C(=O)NCCCc2ccccc2OCCN2CCCC[C@H]2C(=O)N1C`
7.00 to 8.00

Could you tell me which pKi is on file for `CC(C)[C@@H]1NCCOc2ccccc2/C=C/CNC(=O)[C@H](Cc2ccccc2)NC(=O)C2(CCOCC2)NC1=O` ?
6.00 to 7.00

Name the recorded pKi for `C[C@@H]1C(=O)N[C@H](Cc2ccc(O)c(C(C)(C)C)c2)C(=O)NCCCc2ccccc2OCCN[C@@H](C2CC2)C(=O)N1C` .
7.00 to 8.00

Which pKi is reported for this molecule? C[C@@H]1C(=O)N[C@H](Cc2ccc(F)cc2)C(=O)NCCCc2ncccc2OCCN[C@@H](C2CC2)C(=O)N1C [306a]
7.00 to 8.00

Requested field: pKi. Item: `CC(C)C[C@@H]1NCCOc2ccccc2/C=C/CNC(=O)[C@H](Cc2cccc(Cl)c2)NC(=O)C2(CCCC2)NC1=O`
8.00 to 10.00

# query: pKi of entry `C[C@@H]1C(=O)N[C@H](Cc2ccccc2)C(=O)NCCCc2ccccc2OCCN[C@@H](C2CC2)C(=O)N1C`
8.00 to 10.00

State the recorded pKi for this entry: CC1C(=O)NC(Cc2ccc(F)cc2)C(=O)NCCCc2ccccc2O[C@H](C)CNC(C2CC2)C(=O)N1C (stereo partly drawn)
7.00 to 8.00

Okay, next one:
Reported pKi, molecule `CCC[C@@H]1NCCOc2ccccc2CCCNC(=O)[C@@H](Cc2ccc(O)cc2)NC(=O)CN(C)C1=O` : ____
6.00 to 7.00

---

target: motilin receptor (Homo sapiens, UniProt O43193); assay: Selectivity for the ghrelin receptor versus the motilin receptor; type: binding
Sequence (O43193 whole entry, species assumed): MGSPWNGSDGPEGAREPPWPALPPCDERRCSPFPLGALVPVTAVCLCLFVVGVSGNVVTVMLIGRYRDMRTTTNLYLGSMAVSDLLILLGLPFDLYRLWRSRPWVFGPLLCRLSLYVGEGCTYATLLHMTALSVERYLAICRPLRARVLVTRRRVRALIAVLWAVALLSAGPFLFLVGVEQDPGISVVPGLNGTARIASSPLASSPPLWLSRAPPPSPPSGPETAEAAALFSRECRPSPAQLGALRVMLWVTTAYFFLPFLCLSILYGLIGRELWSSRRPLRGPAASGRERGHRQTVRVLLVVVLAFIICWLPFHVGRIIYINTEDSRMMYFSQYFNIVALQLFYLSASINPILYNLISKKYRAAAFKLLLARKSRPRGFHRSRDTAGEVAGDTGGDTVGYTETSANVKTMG
Experimental endpoint: Selectivity

Sample records with Selectivity:
Form field - read-out: Selectivity; system: motilin receptor (Homo sapiens, UniProt O43193); submitted item: CCCC[C@@H]1NCCOc2ccccc2CCCNC(=O)[C@@H](Cc2ccccc2)NC(=O)CN(C)C1=O [Compound 1]
142/1

Reported Selectivity for motilin receptor (Homo sapiens, UniProt O43193), given C[C@@H]1C(=O)N[C@H](Cc2ccccc2)C(=O)NCCCc2ccccc2OCCN[C@@H](C2CC2)C(=O)N1C [compound 17] ?
2500/1

Could you share what Selectivity was measured for C[C@@H]1C(=O)N[C@H](Cc2ccc(O)c(C(C)(C)C)c2)C(=O)NCCCc2ccccc2OCCN[C@@H](C2CC2)C(=O)N1C [compound 311] , tested on motilin receptor (Homo sapiens, UniProt O43193)?
21/1

Any idea what Selectivity came out for C[C@@H]1C(=O)N[C@H](Cc2ccc(F)cc2)C(=O)NCCCc2cc(NS(C)(=O)=O)ccc2OCCN[C@@H](C2CC2)C(=O)N1C [compound 374] on motilin receptor (Homo sapiens, UniProt O43193)?
250/1

// map CC(C)C[C@@H]1NCCOc2ccccc2/C=C/CNC(=O)[C@H](Cc2ccccc2)NC(=O)C2(CCCC2)NC1=O [Compound 8] to recorded Selectivity (system: motilin receptor (Homo sapiens, UniProt O43193))
200/1

Identify the measured Selectivity of CCC(C)[C@@H]1NCCOc2ccccc2/C=C/CNC(=O)[C@H](Cc2cccc(Cl)c2)NC(=O)C2(CCCC2)NC1=O (stereo partly shown) [345a] for motilin receptor (Homo sapiens, UniProt O43193).
>159/1

Short answer please: Selectivity, motilin receptor (Homo sapiens, UniProt O43193), entry CC[C@H](C)[C@@H]1NCCOc2ccc(F)cc2CCCNC(=O)[C@H](Cc2cccc(Cl)c2)NC(=O)C2(CCCC2)NC1=O [compound 382]
74/1

Form field: Selectivity recorded for CC1(C)NC(=O)C2(CCCC2)NCCOc2ccccc2/C=C/CNC(=O)[C@H](Cc2cccc(Cl)c2)NC1=O [compound 334] with motilin receptor (Homo sapiens, UniProt O43193) (enter value)
346/1

Next:
Enter reported Selectivity observed with motilin receptor (Homo sapiens, UniProt O43193) for CCC(C)C1NCCOc2ccccc2C2CC2CNC(=O)C(Cc2cccc(Cl)c2)NC(=O)C2(CCCC2)NC1=O (stereo not shown) [compound 388]
400/1

// fetch motilin receptor (Homo sapiens, UniProt O43193) Selectivity for CC[C@@H](C)[C@@H]1NCCOc2ccccc2CCCNC(=O)[C@@H](Cc2ccccc2)NC(=O)[C@@H](C)N(C)C1=O [compound 16]
>2000/1

---

Target: human growth hormone secretagogue receptor (hGHS-R1a) (Homo sapiens)
Construct: purchased PerkinElmer BioSignal #RBHGHSM; host or cells: HEK-293, stably transfected
Experiment: Competitive radioligand binding assay (ghrelin receptor), [125I]-ghrelin displacement on GHS-R/HEK 293 membranes
Settings: Binding activity at the human ghrelin receptor, [125I]-ghrelin displacement; read-out: Ki
Method: The competitive binding assay at the human growth hormone secretagogue receptor (hGHS-R1a) was carried out analogously to assays described in the literature. Multiscreen Harvest plates-GF/C (Millipore, #MAHFC1H60) • 4. […] Plates were sealed with TopSeal-A, vortexed gently and incubated at rt for 30 min. […] Results were expressed as counts per minute (cpm). Data were analyzed by GraphPad Prism (GraphPad Software, San Diego, Calif.) using […] non-linear regression analysis. […]
Experimental endpoint: Ki

Sample `CCC[C@@H]1NCc2ccccc2Sc2ccccc2CNC(=O)[C@@H](Cc2ccccc2)NC(=O)CN(C)C1=O` — what was its Ki?
0.1 to 1 µM

# lookup: Ki of `CCC[C@@H]1NCCOc2ccccc2CCCNC(=O)[C@@H](Cc2ccccc2)NC(=O)[C@@H](CC(C)C)NC1=O`
> 10 µM

For the compound shown here, `CN1CC(=O)N[C@H](Cc2ccccc2)C(=O)NCCCc2ccccc2OCCN[C@@H](CO)C1=O` , give the reported Ki.
> 10 µM

---
Quick one: Ki of `CCC[C@@H]1NCCOc2ccccc2CCCNC(=O)[C@@H](C)NC(=O)CN(C)C1=O` ?
> 10 µM

Data request, read-out Ki, for `CC(C)C[C@@H]1NCCOc2ccccc2CCCNC(=O)[C@H](Cc2c[nH]c3ccccc23)NC(=O)C2(CCCC2)NC1=O`
1 to 10 µM

// query Ki value for entry `CC(C)C[C@H]1NCCOc2ccccc2CCCNC(=O)[C@H](Cc2ccccc2)NC(=O)C2(CCCC2)NC1=O`
> 10 µM

Any idea what its Ki is? The compound is `CCC[C@@H]1NCCOc2ccccc2CCCNC(=O)[C@@H](Cc2ccccc2)NC(=O)[C@H](Cc2ccccc2)NC1=O`
> 10 µM

Return reported Ki; argument: `CC(C)C[C@@H]1NCCOc2ccccc2CCCNC(=O)[C@H](C)NC(=O)C2(CCCC2)NC1=O`
> 10 µM

# credit: patent US20180110824A1
